B1: SMARCE1 (parent)
chain: YHNSPAYLAYINAKSRAEAALEEE

- Variants of: B1
- run description: protein stability index of a GFP-peptide fusion (GPS, HEK-293T) (PSI 1-6); higher = more stable;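 further: lentivirally expressed fusions sorted by FACS into six bins by GFP to DsRed ratio, PSI derived from sequencing read proportions per bin multiplied by bin number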
- condition notes: c terminus: a fixed tail appended
For each record, write down the corresponding protein stability index.
Answers are plain numbers.

Below are worked cases with known answers.
>>> value_measured("YHNSPAYLAYINAKSRAEAALNEE [E22N]")
2.44
>>> value_measured("YHNSPPYLAYINAKSRAEAALEEE [A6P]")
1.94
>>> value_measured("YHNSPAYLAYINAKSRAEAAWEEE [L21W]")
2.94
>>> value_measured("HHNSPAYLAYINAKSRAEAALEEE [Y1H]")
4.6
>>> value_measured("YHNSPAYLAYINAKSRYEAALEEE [A17Y]")
2.05

For each of the variants below, state protein stability index.
1. YHNSPAYLAYINAKSRAEFALEEE [A19F]
2. YHNSPMYLAYINAKSRAEAALEEE [A6M]

2.31
2.07

For each of the variants below, state protein stability index.
1. YHNSPAYLAYINAKSRAEAALPEE [E22P]
2. YHNSPAYGAYINAKSRAEAALEEE [L8G]
3. YHNSQAYLAYINAKSRAEAALEEE [P5Q]
4. YHNSPAYLAYINAKSRAVAALEEE [E18V]
5. YHNSPAYLAYINAKSRAEAALFEE [E22F]
6. YHNSPAYLAYINAKSRAEAALENE [E23N]

1. 2.73
2. 1.69
3. 4.02
4. 2.76
5. 2.04
6. 1.57
